- ASSAY SYSTEM: JAK2 (Homo sapiens (Human), UniProt O60674)
- Sequence (O60674 849-1124): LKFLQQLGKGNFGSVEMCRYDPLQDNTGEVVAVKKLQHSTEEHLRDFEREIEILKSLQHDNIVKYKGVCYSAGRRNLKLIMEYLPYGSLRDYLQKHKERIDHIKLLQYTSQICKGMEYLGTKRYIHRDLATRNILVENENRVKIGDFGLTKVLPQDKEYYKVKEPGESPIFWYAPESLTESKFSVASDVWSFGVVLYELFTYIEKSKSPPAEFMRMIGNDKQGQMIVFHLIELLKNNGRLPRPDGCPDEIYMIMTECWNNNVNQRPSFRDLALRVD
- ASSAY INFO: JAK Caliper enzyme assay at 1 mM ATP (JAK2)
- PARTICULARS: recombinant human kinase domain, Caliper mobility shift
pIC50: −log10 of the molar value.
Kindly return t if reported pIC50 is no lower than 7; return f if it is lower.

[[record]]
structure_as_smiles = "Cn1cc(-c2cn3nccc3c(-c3cnn([C@]4(CC#N)C[C@@H](c5ccn[nH]5)C4)c3)n2)cn1"
classification = "f"


Problem: Could you verify whether the entry C[C@H]1N(CC(F)(F)F)C[C@]1(CC#N)n1cc(-c2nc(-c3cnn(C)c3)cn3nccc23)cn1 shows pIC50 of no less than 7?
Solution: f

Problem: Also Cn1cc(-c2cn3nccc3c(-c3cnn([C@]4(CC#N)C[C@@H](C#N)C4)c3)n2)c(N)n1 , if possible.
Solution: t

Problem: Also N#CC[C@]1(n2cc(-c3nc(-c4cc(CO)on4)cn4nccc34)cn2)C[C@@H](C#N)C1 , if possible.
Solution: t

Problem: Also Cn1cc(-c2cn3nccc3c(-c3cnn([C@]4(CC#N)C[C@@H](C#N)C4)c3)n2)nn1 , if possible.
Solution: f

Problem: Also CO[C@H]1C[C@@](CC#N)(n2cc(-c3nc(-c4cc(CO)[nH]n4)cn4nccc34)cn2)C1 , if possible.
Solution: f

Problem: Also CO[C@H]1C[C@](CC#N)(n2cc(-c3nc(-c4cc(CO)[nH]n4)cn4nccc34)cn2)C1 , if possible.
Solution: f

Problem: Also CO[C@H]1C[C@](CC#N)(n2cc(-c3nc(-c4cnn(C)c4)cn4nccc34)cn2)C1 , if possible.
Solution: f
